Where do these numbers come from? They come from patent US20240327534A1.

Molecular target: T1, human BCMA on BCMA expressing cell lines (human, UniProt Q02223 1-184)
T1 sequence: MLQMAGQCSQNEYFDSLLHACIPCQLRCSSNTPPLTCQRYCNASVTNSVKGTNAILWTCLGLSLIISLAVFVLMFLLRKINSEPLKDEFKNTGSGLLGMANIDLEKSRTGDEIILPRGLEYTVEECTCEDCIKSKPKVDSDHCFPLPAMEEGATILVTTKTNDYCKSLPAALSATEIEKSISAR
Assay: cell-based or functional assay
Here the recorded TDCC EC50 (EJM cells) is given for each entry.
Output spec: scalar in nM, unitless text.

BCMA targeting trispecific protein 01A04 (other, not shown: large carriers; small tags and cut ends, trispecific) VHH: EVQLVESGGGLVQPGRSLTLSCAASTNIFMISPMGWYRQAPGKQRELVAAIHGDSTLYADSVKGRFTISRDNAKNSIYLQMNSLRPEDTALYYCNKVPWGRYHPRNVYWGQGTQVTVSS; 0.159
BCMA targeting trispecific protein 01B09 (other, not shown: large carriers; small tags and cut ends, trispecific) VHH: EVQLVESGGGLVQPGRSLTLSCAASSNIFSISPMGWYRQAPGKQRELVAAIHGSSTLYADSVKGRFTISRDNAKNSIYLQMNSLRPEDTALYYCNKVPWGDYHPGNVYWGQGTQVTVSS; 0.00527
BCMA targeting trispecific protein 02H05 (other, trispecific; not shown: The C-terminal 6xHis tag is left out because it follows these missing domains) VHH: EVQLVESGGGLVQPGRSLTLSCAASTNQFSISPMGWYRQAPGKQRELVAAIHGKSTLYADSVKGRFTISRDNAKNSIYLQMNSLRPEDTALYYCNKVPWGDYHPRNVVWGQGTQVTVSS; 0.0389

[in] Answer with the recorded TDCC EC50 (EJM cells) for the binder listed here: BCMA targeting trispecific protein 02D06 (other, not shown: large carriers; small tags and cut ends, trispecific) VHH: EVQLVESGGGLVQPGRSLTLSCAASTNISSISPMGWYRQAPGKQRELVAAIHGFSTVYADSVKGRFTISRDNAKNSIYLQMNSLRPEDTALYYCNKVPWGRYHPRNVYWGQGTQVTVSS
[out] 0.0428
